Consider the following compounds and their measured IC50 readings.
biological target: KAT-8 (Homo sapiens (Human)); assay: KAT-8 biochemical inhibition assay (SAMDI mass spectrometry)
Sequence (Q9H7Z6 other isoform, or with tags, fused parts or gaps): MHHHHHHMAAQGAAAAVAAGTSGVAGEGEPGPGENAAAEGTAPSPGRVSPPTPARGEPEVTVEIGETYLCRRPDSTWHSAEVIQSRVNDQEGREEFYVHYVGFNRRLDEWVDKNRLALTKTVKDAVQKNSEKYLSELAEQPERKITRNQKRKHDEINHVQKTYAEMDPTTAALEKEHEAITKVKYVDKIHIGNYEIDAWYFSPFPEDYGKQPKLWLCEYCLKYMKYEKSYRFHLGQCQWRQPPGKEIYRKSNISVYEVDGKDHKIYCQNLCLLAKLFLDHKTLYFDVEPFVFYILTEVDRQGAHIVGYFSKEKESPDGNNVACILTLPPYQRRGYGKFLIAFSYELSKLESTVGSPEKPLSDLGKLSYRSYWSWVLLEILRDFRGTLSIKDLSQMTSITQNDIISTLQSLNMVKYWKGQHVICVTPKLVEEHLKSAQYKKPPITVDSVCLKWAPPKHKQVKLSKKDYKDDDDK

Record excerpt, results attached:
// query IC50 value for entry COc1ccc(CNC(=O)NC2CCC(CS(=O)(=O)NNC(=O)c3cc(-c4cn(C)cn4)cc(Cl)c3F)C2)cc1 (stereo not shown) 10 to 50 µM

// query IC50 value for entry CCn1c(-c2cc(Cl)c(F)c(C(=O)NNS(=O)(=O)C3CCCCC3)c2)cnc1C > 100 µM

// query IC50 value for entry CCn1cnc(-c2cc(Cl)c(F)c(C(=O)NNS(=O)(=O)CC3CCCCC3)c2)c1C > 100 µM

// query IC50 value for entry C[C@@H]1CN(C(=O)OC(C)(C)C)C[C@H]1CS(=O)(=O)NNC(=O)c1cc(-c2cn(C)cn2)cc(Cl)c1F 10 to 50 µM

// query IC50 value for entry Cc1cc(-c2cn(C)cn2)cc(C(=O)NNS(=O)(=O)CC2CCOCC2)c1F > 100 µM

Next:
// query IC50 value for entry CC(=O)N[C@H]1C[C@H](CS(=O)(=O)NNC(=O)c2cc(-c3cn(C)cn3)cc(Cl)c2F)C1 10 to 50 µM

// query IC50 value for entry COCCc1c(-c2cc(Cl)c(F)c(C(=O)NNS(=O)(=O)CC3CCOCC3)c2)cnn1C 10 to 50 µM
